# System: SNB-75 CNS
# EXPERIMENT_NOTES: NCI tumour cell line growth inhibition, 48 h; in the data active = GI50 below about 0.43 µM; inactive = the rest
A correct response names exactly one class from active, inactive

Consider the following illustrative entries.
Cc1ccc(N(CC(=O)Nc2ccc(S(=O)(=O)NC3CCN(C)CC3)cc2)S(=O)(=O)c2ccc(Cl)cc2)cc1 | inactive
COc1cc(/C=C/c2cc(/C=C/c3ccc(O)c(OC)c3)n(C(=O)Cc3ccccc3)n2)ccc1O | inactive
COc1ccccc1/C=C/C(=O)c1ccc(Nc2nc(Nc3ccc(F)cc3)nc(Nc3ccc(F)cc3)n2)cc1 | inactive

Please let me know the test result on file for CCCCN1C=CCN(CCCC)C1 .
inactive

Please let me know the test result on file for O=C(CCCBr)Nc1ccccc1C#C/C=C\C#Cc1ccccc1C(F)(F)F .
inactive

Please let me know the test result on file for CN(C)CCNc1c2c(c(NCCN(C)C)c3c(CN(C)C)c[nH]c13)C(=O)c1ccccc1C2=O .
inactive

Please let me know the test result on file for C=C(C)[C@@H]1/C=C(/C(C)C)CC[C@@]2(C)OC2CC[C@H](C)CC1=O (stereo not given in full) .
inactive

Please let me know the test result on file for COc1cc(C=C2c3ccccc3C(=O)c3ccccc32)ccc1OCCCCOc1cc2c(cc1OC)C(=O)N1CCCC1C=N2 (stereo not given) .
active

Please let me know the test result on file for O=C(c1ccc(Oc2ccccc2)cc1Cl)c1c[nH]c2ncnc(N[C@@H]3CC[C@@H](CO)OC3)c12 .
inactive

Please let me know the test result on file for COc1ccc(-c2cc(C(=O)N3N=C(c4ccc(N)cc4)CC3c3ccc(Cl)cc3)c3ccccc3n2)cc1 (stereo not given) .
active

----------
# Test system: KM12 colon
# EXPERIMENT_NOTES: NCI tumour cell line growth inhibition, 48 h
MEASUREMENT_LABEL: GI50

Example entries begin here.
CCOC(=O)C(CC(C)C)NC(=O)C(Cc1ccc(N(CCCl)CCCl)cc1)NC(C)=O (centres undefined) | 17.8 µM
CN(C)CCNc1c2c(c(NCCN(C)C)c3c(CN(C)C)c[nH]c13)C(=O)c1ccccc1C2=O | 1.6 µM
Cn1cc(-c2csc(-c3c[nH]c4ccc(F)cc34)n2)c2cccnc21 | 0.704 µM

Suppose we examine the compound C=C(C)[C@@H]1/C=C(/C(C)C)CC[C@@]2(C)OC2CC[C@H](C)CC1=O (some centres undefined) ; what GI50 value has been reported?
18.6 µM

----------
# Test system: RXF 393 renal
# EXPERIMENT_NOTES: NCI tumour cell line growth inhibition, 48 h; in the data active = GI50 below about 0.43 µM; inactive = the rest
A correct response names exactly one class from active, inactive

Consider the following illustrative entries.
CCC(=O)OCC1OC(n2cnc3c(=S)nc(N)[nH]c32)C(OC(=O)CC)C1OC(=O)CC (configuration not stated) | inactive
COc1cc(Nc2cc(O)c3c(=O)cc(-c4ccccc4)oc3c2)cc(OC)c1 | active
N#Cc1cc(-c2ccnc(Nc3ccc(NC(=O)CCl)cc3)n2)ccc1N1CCCC1 | inactive
COc1cc(/C=C/c2cc(/C=C/c3ccc(O)c(OC)c3)n(C(=O)Cc3ccccc3)n2)ccc1O | inactive
C=C1C(O)C2C(=C(CC(C)C)C13CC3)C(=O)C(C)(C)C2O (configuration not stated) | inactive

Please let me know the test result on file for CCOC(=O)C(CC(C)C)NC(=O)C(Cc1ccc(N(CCCl)CCCl)cc1)NC(C)=O (configuration not stated) .
inactive

Please let me know the test result on file for COc1cc(Nc2ncc3c(C)nc(-c4cccc(C(F)(F)F)c4)n3n2)cc(OC)c1OC .
inactive

----------
# Tested on: SW-620 colon
# EXPERIMENT_NOTES: NCI tumour cell line growth inhibition, 48 h; in the data active = GI50 below about 0.43 µM; inactive = the rest
A correct response names exactly one class from active, inactive

Please let me know the test result on file for COc1ccc(-c2cc(C(=O)N3N=C(c4ccc(N)cc4)CC3c3ccc(Cl)cc3)c3ccccc3n2)cc1 (stereo not given) .
inactive

Please let me know the test result on file for CN(C)CCNc1c2c(c(NCCN(C)C)c3c(CN(C)C)c[nH]c13)C(=O)c1ccccc1C2=O .
inactive

Please let me know the test result on file for Nc1nc(SCc2ccccc2)nc2[nH]ncc12 .
inactive

Please let me know the test result on file for C=C1C(O)C2C(=C(CC(C)C)C13CC3)C(=O)C(C)(C)C2O (stereo not given) .
inactive

Please let me know the test result on file for CCOC(=O)c1cc(C(=O)c2cc(OC)cc(OC)c2)n2nc(C)ccc12 .
active

----------
# System: HT29 colon
# EXPERIMENT_NOTES: NCI tumour cell line growth inhibition, 48 h; in the data active = GI50 below about 0.43 µM; inactive = the rest
A correct response names exactly one class from active, inactive

Consider the following illustrative entries.
CN(C)CCCNc1nc2ccccc2c2c(=O)c3cc(F)ccc3sc12 | inactive
Cn1cc(-c2csc(-c3c[nH]c4ccc(F)cc34)n2)c2cccnc21 | active
COc1cc(C2CC(c3ccc(SC)cc3)=NN2C(C)=O)cc(OC)c1OC (centres undefined) | inactive

Please let me know the test result on file for COc1ccccc1/C=C/C(=O)c1ccc(Nc2nc(Nc3ccc(F)cc3)nc(Nc3ccc(F)cc3)n2)cc1 .
inactive

----------
# Tested on: 786-0 renal
# EXPERIMENT_NOTES: NCI tumour cell line growth inhibition, 48 h
MEASUREMENT_LABEL: TGI (µM)
Reply with just the number (in µM).

Example entries begin here.
COc1cc(/C=C/c2cc(/C=C/c3ccc(O)c(OC)c3)n(C(=O)Cc3ccccc3)n2)ccc1O | 4.53
CCCCCCCCCCCCC(=O)CCCCC(=O)O | 84.7
COc1ccccc1/C=C/C(=O)c1ccc(Nc2nc(Nc3ccc(F)cc3)nc(Nc3ccc(F)cc3)n2)cc1 | 14.9
CCc1cccc(C(C)CC)c1NC(=O)CC1C(=O)Nc2ccccc2S1(=O)=O (configuration not stated) | 33.6
Cc1cccc(/C=N/NC(=S)Nc2ccc(Cl)cc2)n1 | 12.1

Suppose we examine the compound [O-][n+]1c(-c2ccccc2)oc2ccccc21 ; what TGI value has been reported?
62.4

----------
# System: MDA-MB-435
A correct response names exactly one class from 1 = active, -1 = inactive

O=C1C(=O)/C(=C/c2ccccc2)CCCCCC/C1=C/c1ccccc1 | -1
CN(C)CCCNc1nc2ccccc2c2c(=O)c3cc(F)ccc3sc12 | -1
Oc1ccc(OCCOc2ccc(O)cc2)cc1 | -1

Please let me know the test result on file for COc1cc(/C=C/c2cc(/C=C/c3ccc(O)c(OC)c3)n(C(=O)Cc3ccccc3)n2)ccc1O .
1

Please let me know the test result on file for COc1cc2c(Oc3ccc4[nH]c(C)cc4c3F)ncnc2cc1OCCCN1CCCC1 .
-1

Please let me know the test result on file for Cc1ccc(N(CC(=O)Nc2ccc(S(=O)(=O)NC3CCN(C)CC3)cc2)S(=O)(=O)c2ccc(Cl)cc2)cc1 .
-1

Please let me know the test result on file for Nc1nc(SCc2ccccc2)nc2[nH]ncc12 .
-1

Please let me know the test result on file for COc1cc(C2CC(c3ccc(SC)cc3)=NN2C(C)=O)cc(OC)c1OC (configuration not stated) .
-1

----------
# Test system: SF-268 CNS
# EXPERIMENT_NOTES: NCI tumour cell line growth inhibition, 48 h
MEASUREMENT_LABEL: TGI

COc1ccc(Cc2nccc3cc(OC)c(OC)cc23)cc1 | > 100 µM
COc1ccccc1-c1cc(=O)c2c(C)cc(C)nc2[nH]1 | > 100 µM
[N-]=[N+]=CC(=O)OC1CCOCC1 | > 100 µM
CN(c1ccc(Cl)c(Cl)c1)c1cnc2cc(N)cc(N)c2n1 | 25 µM
COC1=CC(=O)c2c(c(-c3csc(C)n3)cn2C)C1=O | > 100 µM

Suppose we examine the molecule NCCCNc1nc2ccccc2c2c(=O)c3cccc(F)c3sc12 ; what TGI value has been reported?
3.35 µM

Suppose we examine the molecule C(=N\c1cc2cc(Sc3ccccc3)ccc2[nH]1)/c1ccccc1 ; what TGI value has been reported?
> 12.5 µM

Suppose we examine the molecule Cc1cccc(C)c1NC(=O)CCC(=O)NNc1nnc(C)n1N ; what TGI value has been reported?
> 100 µM

----------
# Test system: MOLT-4 leukemia
# EXPERIMENT_NOTES: NCI tumour cell line growth inhibition, 48 h
As shown below, each of these compounds has a reported TGI value.
Reply with just the number (in µM).

O=C(c1ccc(Oc2ccccc2)cc1Cl)c1c[nH]c2ncnc(N[C@@H]3CC[C@@H](CO)OC3)c12 | 8.99

# evaluate next
Suppose we examine the compound C=CCOC1=C(OC(C)=O)C(=O)OC1C1COC(C)(C)O1 (stereo not given) ; what TGI value has been reported?
45.7

----------
# Tested on: OVCAR-8 ovarian
# EXPERIMENT_NOTES: NCI tumour cell line growth inhibition, 48 h; in the data active = GI50 below about 0.43 µM; inactive = the rest
A correct response names exactly one class from T for active, F for inactive

Consider the following illustrative entries.
CCCCc1ccc(NS(=O)(=O)c2cc3c4c(c2)CCN4C(=O)CC3)cc1 | F
COc1cc(/C=C/c2cc(/C=C/c3ccc(O)c(OC)c3)n(C(=O)Cc3ccccc3)n2)ccc1O | F
Oc1ccc(OCCOc2ccc(O)cc2)cc1 | F
COc1cc(C(=O)/C=C/c2c(-c3cccs3)nc3sccn23)cc(OC)c1OC | F
COc1cc(Nc2ncc3c(C)nc(-c4cccc(C(F)(F)F)c4)n3n2)cc(OC)c1OC | F

Please let me know the test result on file for COc1cc(C=C2c3ccccc3C(=O)c3ccccc32)ccc1OCCCCOc1cc2c(cc1OC)C(=O)N1CCCC1C=N2 (stereo not given) .
T

# credit: PubChem BioAssay (NCI)
